# system_name: P. falciparum apicoplast DNA polymerase (Pf-apPOL) (Plasmodium falciparum)
# assay_procedure: Fluorescence-based high-throughput DNA polymerase assay (molecular beacon), primary screen and dose-response
# Format: biochemical
# test_parameters: DRC-2; read at 90'; concentration 2.5
Let's look at some molecules and their measured % inhibition ApPOL 90' 2.5.
API: value field is a number in %; no unit string.

Previously resolved entries follow.
{"molecule": "COc1ccccc1CC(=O)N1CCc2c(nc3cc(-c4ccccc4Cl)[nH]n3c2=O)C1 [Molecule 49]", "system_name": "P. falciparum apicoplast DNA polymerase (Pf-apPOL) (Plasmodium falciparum)", "assay_metric": "% inhibition ApPOL 90' 2.5", "recorded_value": 3.2}
{"molecule": "COc1ccc(/C=C/c2cc(C(=O)O)c3ccccc3n2)cc1 [Molecule 5, COc1ccc(cc1)/C=C/c1nc2ccccc2c(c1)C(=O)O]", "system_name": "P. falciparum apicoplast DNA polymerase (Pf-apPOL) (Plasmodium falciparum)", "assay_metric": "% inhibition ApPOL 90' 2.5", "recorded_value": 45}
{"molecule": "N#Cc1c(O)nc(N2CCCCC2)nc1-c1ccc2c(c1)OCO2 [KU0083146]", "system_name": "P. falciparum apicoplast DNA polymerase (Pf-apPOL) (Plasmodium falciparum)", "assay_metric": "% inhibition ApPOL 90' 2.5", "recorded_value": 11}
{"molecule": "Cn1nc(-c2nnc(-c3ccccc3F)o2)c2c1CCN(C(=O)c1ccccc1Cl)C2 [Molecule 34]", "system_name": "P. falciparum apicoplast DNA polymerase (Pf-apPOL) (Plasmodium falciparum)", "assay_metric": "% inhibition ApPOL 90' 2.5", "recorded_value": 22}
{"molecule": "CC(C)CC(C(=O)O)N1C(=O)C2C3C=CC(C2C1=O)C1C(=O)N(C(CC(C)C)C(=O)O)C(=O)C31 (stereo not shown) [KU0193449]", "system_name": "P. falciparum apicoplast DNA polymerase (Pf-apPOL) (Plasmodium falciparum)", "assay_metric": "% inhibition ApPOL 90' 2.5", "recorded_value": -0.778}

[in] Value lookup for % inhibition ApPOL 90' 2.5; key = Cc1cccc(-c2noc(C(=O)NNC(=O)C(Cl)(Cl)Cl)n2)c1 [KU0266208]
[out] 3

[in] Next molecule up: COc1ccc(C2CC(c3ccc(Cl)cc3Cl)Nc3nc(N)nn32)cc1OC (stereo not shown) [Molecule 43]
[out] 26

###

# system_name: P. falciparum apicoplast DNA polymerase (Pf-apPOL) (Plasmodium falciparum, UniProt Q8ILY1)
# Sequence (Q8ILY1 entry or part of it): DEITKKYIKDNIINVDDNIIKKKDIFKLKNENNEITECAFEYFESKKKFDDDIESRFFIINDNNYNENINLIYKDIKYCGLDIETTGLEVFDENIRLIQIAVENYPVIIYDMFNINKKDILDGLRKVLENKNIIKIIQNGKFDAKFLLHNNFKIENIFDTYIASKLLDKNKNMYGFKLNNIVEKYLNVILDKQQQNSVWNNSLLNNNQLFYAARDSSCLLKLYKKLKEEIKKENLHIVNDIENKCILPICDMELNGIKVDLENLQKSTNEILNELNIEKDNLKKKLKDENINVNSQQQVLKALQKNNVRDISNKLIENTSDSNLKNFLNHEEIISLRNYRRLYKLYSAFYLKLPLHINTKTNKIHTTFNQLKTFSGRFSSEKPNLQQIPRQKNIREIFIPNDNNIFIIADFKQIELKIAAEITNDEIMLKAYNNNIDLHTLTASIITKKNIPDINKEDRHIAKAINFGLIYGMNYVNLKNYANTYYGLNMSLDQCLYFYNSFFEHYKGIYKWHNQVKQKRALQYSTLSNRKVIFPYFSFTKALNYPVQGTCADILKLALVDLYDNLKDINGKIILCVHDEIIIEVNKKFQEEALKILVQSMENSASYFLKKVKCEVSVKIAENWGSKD
# assay_procedure: Fluorescence-based high-throughput DNA polymerase assay (molecular beacon), primary screen and dose-response
# Type: biochemical
# test_parameters: DRC-1; 90'; concentration 2.5
Let's look at some compounds and their measured % inhibition Apol 90'.
API: value field is a number in %; no unit string.

{"compound": "O=C(Nc1cccc(Cl)c1)Nc1nnc(-c2ccncc2)s1", "recorded_value": 6.139}
{"compound": "COc1ccc(C(=O)N2CCc3c(nc4cc(-c5ccccc5Cl)[nH]n4c3=O)C2)cn1", "recorded_value": -2.83}

[in] Value lookup for % inhibition Apol 90'; key = `Cc1ncc(CSc2nc(C(C)(C)C)cs2)c(CO)c1O`
[out] -0.5136

[in] Next compound up: CO/N=C(\C(=O)N[C@@H]1C(=O)N2C(C(=O)[O-])=C(CSc3nc(=O)c([O-])nn3C)CSC12)c1csc(N)n1.[Na+].[Na+] (stereo partly shown)
[out] -5.899

[in] Next compound up: `O=C1N/C(=N/c2ccccc2Cl)S/C1=C/c1ccc([N+](=O)[O-])o1`
[out] 2.857

[in] Next compound up: `CN1CC(=Cc2ccco2)C(=O)C(=Cc2ccco2)C1`
[out] 10.4669

[in] Next compound up: `COc1ccccc1CCC(=O)N1CCc2c(nc3cc(-c4ccccc4)[nH]n3c2=O)C1`
[out] 0.0541

###

# system_name: P. falciparum apicoplast DNA polymerase (Pf-apPOL) (Plasmodium falciparum)
# assay_procedure: Fluorescence-based high-throughput DNA polymerase assay (molecular beacon), primary screen and dose-response
# Type: biochemical
# test_parameters: DRC-1; 10'; concentration 80
Let's look at some compounds and their measured % inhibition Apo pol 10'.
API: value field is a number in %; no unit string.

Previously resolved entries follow.
{"compound": "CC(=O)c1cc2c(N)c(/C(N)=N/C#N)sc2nc1C [KU0015866]", "% inhibition Apo pol 10', %": 81.2768}
{"compound": "O=C(c1c[nH]c2ncccc12)N1CCCCCC1 [Molecule 51, O=C(c1c[nH]c2c1cccn2)N1CCCCCC1]", "% inhibition Apo pol 10', %": 66.9665}
{"compound": "O=[N+]([O-])c1cc2c(cc1CN1CCN(c3cccc(Cl)c3)CC1)OCO2 [KU0005610]", "% inhibition Apo pol 10', %": 82.8557}
{"compound": "CCCCCCCCCCCC1SCC(C(=O)O)N1C(C)=O (stereo not drawn) [Molecule 72]", "% inhibition Apo pol 10', %": 89.6133}
{"compound": "CCCCCCCCCCCCCCCCCC(=O)CCN(C)C [KU0271928]", "% inhibition Apo pol 10', %": 46.1524}

[in] Value lookup for % inhibition Apo pol 10'; key = CN(C)S(=O)(=O)Oc1ccc(-c2noc(-c3ccc(Oc4cc(Cl)cc(Cl)c4)o3)n2)cc1 [KU0263859]
[out] 81.4369

[in] Next compound up: O=C(O)CC1=NN(c2cccc([N+](=O)[O-])c2)C(=O)C1 [KU0100531]
[out] 88.3009

[in] Next compound up: OC(C#Cc1ccccc1)c1ccco1 (stereo not drawn) [Molecule 95, OC(c1ccco1)C#Cc1ccccc1]
[out] 69.6909

[in] Next compound up: N#CC(=NNc1cc(C(F)(F)F)cc(C(F)(F)F)c1)C(=O)c1ccco1 [KU0264276]
[out] 81.2188

###

Let's look at some compounds and their measured % inhibition Apol 40' 5.
# system_name: P. falciparum apicoplast DNA polymerase (Pf-apPOL) (Plasmodium falciparum)
# assay_procedure: Fluorescence-based high-throughput DNA polymerase assay (molecular beacon), primary screen and dose-response
# Assay type: biochemical
# test_parameters: DRC-2; read at 40'; concentration 5
# Source text: The HT assay employs a molecular beacon, a stem-loop DNA template with a Cy3 dye and the Black Hole Quencher on the 3′ and 5′ ends of the DNA, respectively. Pf-apPOL concentration is based on a calculated absorptivity of ε280 = 56750 M^−1 cm^−1. […] To identify apPOL inhibitors we utilised our previously developed high-throughput DNA polymerase assay. […] The assay accurately recapitulates the kinetic behaviour of apPOL, as measured through more conventional low-throughput gel-based assays. […]
API: value field is a number in %; no unit string.

{"query_smiles": "COc1ccc(/C=C/c2cc(C(=O)O)c3ccccc3n2)cc1", "% inhibition Apol 40' 5 / %": 36}
{"query_smiles": "CC(=O)Nc1cc(C(=O)c2cccs2)nn(-c2ccc(Cl)cc2)c1=O", "% inhibition Apol 40' 5 / %": 7}
{"query_smiles": "Cn1nc(-c2nnc(-c3ccccc3F)o2)c2c1CCN(C(=O)c1ccccc1Cl)C2", "% inhibition Apol 40' 5 / %": 27}
{"query_smiles": "Cc1nc(C)c2c(n1)N(CC1CCCCC1)C(=O)CC2", "% inhibition Apol 40' 5 / %": 30}

[in] Value lookup for % inhibition Apol 40' 5; key = `Nc1cc(Oc2ccc(O)c(N)c2)ccc1O`
[out] 44

[in] Next compound up: `Cc1cc2[nH]c(C(=O)Nc3ccc(F)cc3)c(CN3CCOCC3)c2s1`
[out] 3.72

[in] Next compound up: `O=C(CCc1csc(NC(=O)Nc2ccccc2)n1)Nc1nc2ccccc2s1`
[out] -6

[in] Next compound up: `O=C(c1ccccc1)N1CCc2c(nc3cc(-c4ccccc4)[nH]n3c2=O)C1`
[out] 20

[in] Next compound up: `Cc1cccc(-c2noc(C(=O)NNC(=O)C(Cl)(Cl)Cl)n2)c1`
[out] 4.64

###

# system_name: P. falciparum apicoplast DNA polymerase (Pf-apPOL) (Plasmodium falciparum, UniProt Q8ILY1)
# assay_procedure: Fluorescence-based high-throughput DNA polymerase assay (molecular beacon), primary screen and dose-response
# Type: biochemical
# test_parameters: 'DNA Pol' of the 186 hits list (screen value); 90 min, 10 µM
Let's look at some compounds and their measured DNA Pol.
Give the figure by itself; no unit, no explanation.

Previously resolved entries follow.
{"compound": "Cc1ccc(CNC(=O)c2cnn3c(O)cc(CSc4ccc(Cl)cc4)nc23)cc1", "DNA Pol": 67}
{"compound": "O=C(O)c1ccc(COc2cc([N+](=O)[O-])cc3cccnc23)cc1", "DNA Pol": 59}
{"compound": "Cc1ccccc1NC(=O)Cn1ccc2c(=O)[nH]ccc21 [Molecule 50, O=C(Cn1ccc2c1cc[nH]c2=O)Nc1ccc(cc1)C]", "DNA Pol": 47}
{"compound": "CC(C)CCNC(=O)c1cnn2c(O)cc(CSc3ccc(Cl)cc3)nc12", "DNA Pol": 47}
{"compound": "C=CC1=C(C)c2cc3[nH]c(cc4nc(cc5[nH]c(cc1n2)c(C)c5CCC(=O)O)C(CCC(=O)O)=C4C)c(C)c3C=C", "DNA Pol": 102}
{"compound": "CCOc1nc2cccc(C(=O)OC(C)OC(=O)OC3CCCCC3)c2n1Cc1ccc(-c2ccccc2-c2nnn[nH]2)cc1 (stereo not shown)", "DNA Pol": 88}
{"compound": "N#CC(C#N)=C1SCN(c2cccc(Cl)c2)CS1", "DNA Pol": 95}
{"compound": "COC(=O)c1sc(-c2ccc(C(C)(C)C)cc2)cc1NC(=O)CCC(=O)O", "DNA Pol": 96}

[in] Value lookup for DNA Pol; key = `C=CCOc1c(Br)cc(Br)cc1/C=C1\SC(=N)NC1=O`
[out] 26

[in] Next compound up: COc1ccccc1C1CC(=O)Oc2cc3c(cc21)OCO3 (stereo not shown)
[out] 42
